- test target: heteromeric KV7.2/KV7.3 channels (KCNQ2, KCNQ3) (Homo sapiens, UniProt O43525+O43526)
- Construct: expressed in transfected cells; host or cells: CHO-K1
- method: Automated patch-clamp (Sophion Qube 384) potency assay against KV7.2/KV7.3 channels
- Type: cell-based
- test parameters: CHO-K1/Kv7.2/Kv7.3 cells; maximal shift in the Vhalf from the top of the curve
observed property: Kv7.2/7.3 ΔV1/2 (mV)

{"molecule": "COc1ccc([C@@H](C)NC(=O)NCc2ccnc(OCC(F)(F)F)c2)cc1", "Kv7.2/7.3 ΔV1/2 (mV)": 27.31}
{"molecule": "O=C(NCc1ccnc(C(O)C(F)(F)F)c1)N[C@@H]1CCc2ccc(F)cc21 (stereo partly drawn)", "Kv7.2/7.3 ΔV1/2 (mV)": 27.22}
{"molecule": "O=C(NCc1ccnc(OCC(F)(F)F)c1)N[C@H]1C[C@H]2CC[C@@H]1O2", "Kv7.2/7.3 ΔV1/2 (mV)": 31.52}
